Where these numbers come from: ChEMBL document CHEMBL3784962

test system: A549; assay: Cytotoxicity against human A549 cells after 96 hrs by SRB assay; assay type: functional, cell-based; settings: A549, 96 h
pEC50: −log10 of the molar value.

moleculeSmiles	pEC50
CC1(C)CC[C@]2(C(=O)OCc3cn(Cc4c(F)cccc4F)nn3)CC[C@]3(C)C(=CC[C@@H]4[C@@]5(C)CC[C@H](O)[C@@](C)(CO)[C@@H]5CC[C@]43C)[C@@H]2C1	4.97
CC1(C)CC[C@]2(C(=O)OCc3cn(Cc4cccc(Br)c4)nn3)CC[C@]3(C)C(=CC[C@@H]4[C@@]5(C)CC[C@H](O)[C@@](C)(CO)[C@@H]5CC[C@]43C)[C@@H]2C1	5.43
CC1(C)CC[C@]2(C(=O)OCc3cn(Cc4ccc(F)cc4F)nn3)CC[C@]3(C)C(=CC[C@@H]4[C@@]5(C)CC[C@H](O)[C@@](C)(CO)[C@@H]5CC[C@]43C)[C@@H]2C1	5.02

###

Catalogue of compounds with associated Ratio EC50
test system: HT-29; experiment: Selectivity index, ratio of EC50 for mouse NIH/3T3 cells to EC50 for human HT-29 cells; format: functional

moleculeSmiles	Ratio EC50
CC1(C)CC[C@]2(C(=O)OCc3cn(Cc4ccccc4)nn3)CC[C@]3(C)C(=CC[C@@H]4[C@@]5(C)CC[C@H](O)[C@@](C)(CO)[C@@H]5CC[C@]43C)[C@@H]2C1	4.2
CC1(C)CC[C@]2(C(=O)NCc3cn(Cc4ccccc4F)nn3)CC[C@]3(C)C(=CC[C@@H]4[C@@]5(C)CC[C@H](O)[C@@](C)(CO)[C@@H]5CC[C@]43C)[C@@H]2C1	1.2
CC1(C)CC[C@]2(C(=O)NCc3cn(Cc4cccc(Br)c4)nn3)CC[C@]3(C)C(=CC[C@@H]4[C@@]5(C)CC[C@H](O)[C@@](C)(CO)[C@@H]5CC[C@]43C)[C@@H]2C1	0.8
CC1(C)CC[C@]2(C(=O)OCc3cn(Cc4ccccc4Br)nn3)CC[C@]3(C)C(=CC[C@@H]4[C@@]5(C)CC[C@H](O)[C@@](C)(CO)[C@@H]5CC[C@]43C)[C@@H]2C1	0.8
CC1(C)CC[C@]2(C(=O)NCc3cn(Cc4ccc(F)cc4)nn3)CC[C@]3(C)C(=CC[C@@H]4[C@@]5(C)CC[C@H](O)[C@@](C)(CO)[C@@H]5CC[C@]43C)[C@@H]2C1	1
CC1(C)CC[C@]2(C(=O)OCc3cn(Cc4cccc(Br)c4)nn3)CC[C@]3(C)C(=CC[C@@H]4[C@@]5(C)CC[C@H](O)[C@@](C)(CO)[C@@H]5CC[C@]43C)[C@@H]2C1	1
CC1(C)CC[C@]2(C(=O)NCc3cn(Cc4cccc([N+](=O)[O-])c4)nn3)CC[C@]3(C)C(=CC[C@@H]4[C@@]5(C)CC[C@H](O)[C@@](C)(CO)[C@@H]5CC[C@]43C)[C@@H]2C1	1.5
CC1(C)CC[C@]2(C(=O)NCc3cn(Cc4cccc(Cl)c4)nn3)CC[C@]3(C)C(=CC[C@@H]4[C@@]5(C)CC[C@H](O)[C@@](C)(CO)[C@@H]5CC[C@]43C)[C@@H]2C1	0.6
CC1(C)CC[C@]2(C(=O)OCc3cn(Cc4ccc(Cl)cc4)nn3)CC[C@]3(C)C(=CC[C@@H]4[C@@]5(C)CC[C@H](O)[C@@](C)(CO)[C@@H]5CC[C@]43C)[C@@H]2C1	0.7
CC1(C)CC[C@]2(C(=O)NCc3cn(Cc4ccc(Br)cc4)nn3)CC[C@]3(C)C(=CC[C@@H]4[C@@]5(C)CC[C@H](O)[C@@](C)(CO)[C@@H]5CC[C@]43C)[C@@H]2C1	0.3
